System: Salmonella typhimurium
Protocol description: Mutagenicity against Salmonella typhimurium TA100 assessed as revertants at 4 uM incubated for 90 mins followed by drug washout measured after 2 days relative to positive control
Type: toxicity, organism-based
Measurement conditions: salmonella enterica subsp. enterica serovar typhimurium, 1.5 h
Recorded metric: Activity (%)
// note: answer is a bare numeric in %

Hi! What's the reported Activity for Clc1cccc(C(Nc2ccnc3cc(Cl)ccc23)c2ccc(CN3CCCC3)cc2)c1 (racemic) on Salmonella typhimurium?
0

What do we get for Fc1cc(C(Nc2ccnc3cc(C(F)(F)F)ccc23)c2ccc(Cl)cc2)ccc1CN1CCCC1 (racemic) ?
3

What do we get for Clc1ccc(C(Nc2ccnc3cc(Cl)ccc23)c2ccc(CN3CCCC3)c(Cl)c2)cc1 (racemic) ?
3

What do we get for Clc1ccc(C(Nc2ccnc3cc(Cl)ccc23)c2ccc(Cn3ccnc3)cc2)cc1 (racemic) ?
6
